# TARGET_ENTITY: DP receptor (Homo sapiens)
# Construct: the human cell line LS174T, which expresses the endogenous DP receptor; endogenous in cells
# Sequence (Q13258 whole entry): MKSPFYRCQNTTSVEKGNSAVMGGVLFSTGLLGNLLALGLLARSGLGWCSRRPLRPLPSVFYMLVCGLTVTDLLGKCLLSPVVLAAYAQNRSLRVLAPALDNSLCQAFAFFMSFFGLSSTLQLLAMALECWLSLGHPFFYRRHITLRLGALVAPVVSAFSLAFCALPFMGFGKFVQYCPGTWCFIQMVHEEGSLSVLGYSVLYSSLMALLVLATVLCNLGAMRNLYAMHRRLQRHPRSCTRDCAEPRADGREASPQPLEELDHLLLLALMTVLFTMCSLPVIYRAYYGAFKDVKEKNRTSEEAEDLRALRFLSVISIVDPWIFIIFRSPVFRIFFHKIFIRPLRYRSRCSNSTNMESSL
# ASSAY_PROTOCOL: SPA cAMP assay in human LS174 T cells (human DP functional assay)
# REPORTED_CONDITIONS: inhibition of PGD2 (15 nM final) stimulated cAMP, LS174T cells expressing endogenous DP receptor
pIC50: −log10 of the molar value. Structures can show the parent of a compound that is named as a salt.
REPORTED_METRIC: pIC50

>>> endpoint_result("COc1ccc(CCNc2cc(-c3ccc(F)c(C(=O)O)c3)nc(OC)n2)cc1")
9.40
>>> endpoint_result("COc1ccc(CCNc2cc(-c3ccc(F)c(CN)c3)nc(OC)n2)cc1 [Example 27, hydrochloride]")
7.39
>>> endpoint_result("COc1ccc(CCNc2cc(-c3ccc(C)s3)nc(OC)n2)cc1 [Example 8(e)]")
8.09
>>> endpoint_result("COc1nc(NCCc2ccc(Cl)cc2Cl)cc(-c2cccc(OCC#N)c2)n1 [Example 22(e)]")
9.40
>>> endpoint_result("COc1nc(NCCc2ccc(OC(F)F)cc2)cc(-c2cccc(NC(C)=O)c2)n1 [Example 46(c), hydrochloride]")
8.40
>>> endpoint_result("COc1ccc(CCNc2cc(-c3c(C)noc3C)nc(OC)n2)cc1")
8.72
>>> endpoint_result("COc1nc(NCCc2c(F)cccc2Cl)cc(-c2cccc(Cc3noc(=O)[nH]3)c2)n1 [Example 34(b), hydrochloride]")
9.00
>>> endpoint_result("COc1ccc(CCNc2cc(-c3ccc4[nH]ccc4c3)nc(OC)n2)cc1")
9.15
>>> endpoint_result("CCOC(=O)OC(C)OC(=O)C(C)(C)c1cccc(-c2cc(NCCc3ccc(Cl)cc3Cl)nc(OC)n2)c1 (stereo not shown) [Example 50, hydrochloride]")
8.40
>>> endpoint_result("COCC(=O)NCCc1cccc(-c2cc(NCCc3ccc(C(F)(F)F)cc3F)nc(OC)n2)c1")
7.25
>>> endpoint_result("COc1ccc(CCNc2cc(-c3ccc(CO)s3)nc(OC)n2)cc1")
9.26
>>> endpoint_result("COc1cccc(-c2cc(NCCc3cccnc3)nc(OC)n2)c1 [Example 43(i), hydrochloride]")
6.61
>>> endpoint_result("COc1ccc(CCNc2cc(-c3ccc(OC)c(OC)c3)nc(OC(C)C)n2)cc1OC")
5.17
>>> endpoint_result("COc1nc(NCCc2ccc(Cl)cc2Cl)cc(-c2cccc(C(F)(F)C(=O)O)c2)n1")
10.70
>>> endpoint_result("CCOC(=O)c1cccc(-c2cc(NCCc3ccc(Cl)cc3Cl)nc(OC)n2)c1")
6.83
>>> endpoint_result("COc1ccc(CCNc2cc(-c3ccc(-c4cnco4)s3)nc(OC)n2)cc1")
8.64
